// values below are reported EC50
Test system: iNeurons from sPD patients
ASSAY PROTOCOL: Mitochondrial membrane potential (MMP) in iNeurons from sPD patients
Assay type: cell-based, human
EXPERIMENTAL PARAMETERS: Homo sapiens; sPD patient iNeurons; dosing every 3 days for last 12 days of differentiation
Experimental: The fibroblasts lines and iNPC lines have previously been characterised and published in Carling et al, 2020. […] iNeurons were treated every 3 days for the last 12 days of the differentiation protocol. […] Mitochondrial reactive oxygen species generation was assessed using mitochondrial NpFR2 (probe; a kind gift from Dr Liz New, University of Sydney, Australia) at 20 μM and Hoechst stain solution at 1 μM for 30 mins at 37° C., then the dyes are removed and cells images using Opera Phenix™. […]
# value in nM; strip the unit string

Observe how each entry below is paired with its result.
{"COMPOUND": "C[C@H](CCCC(=O)O)[C@H]1CC[C@H]2[C@@H]3[C@@H](O)C[C@@H]4CNCC[C@]4(C)[C@H]3CC[C@]12C.Cl [Compound 28b, hydrochloride]", "EC50, nM": 8.2}
{"COMPOUND": "C[C@H](CCC(=O)O)[C@H]1CC[C@H]2[C@@H]3[C@@H](O)C[C@@H]4C[C@H](O)CC[C@]4(C)[C@H]3CC[C@]12C [UDCA, ursodeoxycholic acid, reference compound]", "EC50, nM": 7.3}

Now for a further compound.
Consider the compound shown here: C[C@H](CCC(=O)O)[C@H]1CC[C@H]2[C@@H]3[C@@H](O)C[C@@H]4CNCC[C@]4(C)[C@H]3CC[C@]12C.Cl [Compound 28a, hydrochloride salt] What is its recorded EC50?
10.3
